# system_under_test: human ACC2 (Homo sapiens (Human), UniProt O00763)
# Sequence (O00763 129-2458): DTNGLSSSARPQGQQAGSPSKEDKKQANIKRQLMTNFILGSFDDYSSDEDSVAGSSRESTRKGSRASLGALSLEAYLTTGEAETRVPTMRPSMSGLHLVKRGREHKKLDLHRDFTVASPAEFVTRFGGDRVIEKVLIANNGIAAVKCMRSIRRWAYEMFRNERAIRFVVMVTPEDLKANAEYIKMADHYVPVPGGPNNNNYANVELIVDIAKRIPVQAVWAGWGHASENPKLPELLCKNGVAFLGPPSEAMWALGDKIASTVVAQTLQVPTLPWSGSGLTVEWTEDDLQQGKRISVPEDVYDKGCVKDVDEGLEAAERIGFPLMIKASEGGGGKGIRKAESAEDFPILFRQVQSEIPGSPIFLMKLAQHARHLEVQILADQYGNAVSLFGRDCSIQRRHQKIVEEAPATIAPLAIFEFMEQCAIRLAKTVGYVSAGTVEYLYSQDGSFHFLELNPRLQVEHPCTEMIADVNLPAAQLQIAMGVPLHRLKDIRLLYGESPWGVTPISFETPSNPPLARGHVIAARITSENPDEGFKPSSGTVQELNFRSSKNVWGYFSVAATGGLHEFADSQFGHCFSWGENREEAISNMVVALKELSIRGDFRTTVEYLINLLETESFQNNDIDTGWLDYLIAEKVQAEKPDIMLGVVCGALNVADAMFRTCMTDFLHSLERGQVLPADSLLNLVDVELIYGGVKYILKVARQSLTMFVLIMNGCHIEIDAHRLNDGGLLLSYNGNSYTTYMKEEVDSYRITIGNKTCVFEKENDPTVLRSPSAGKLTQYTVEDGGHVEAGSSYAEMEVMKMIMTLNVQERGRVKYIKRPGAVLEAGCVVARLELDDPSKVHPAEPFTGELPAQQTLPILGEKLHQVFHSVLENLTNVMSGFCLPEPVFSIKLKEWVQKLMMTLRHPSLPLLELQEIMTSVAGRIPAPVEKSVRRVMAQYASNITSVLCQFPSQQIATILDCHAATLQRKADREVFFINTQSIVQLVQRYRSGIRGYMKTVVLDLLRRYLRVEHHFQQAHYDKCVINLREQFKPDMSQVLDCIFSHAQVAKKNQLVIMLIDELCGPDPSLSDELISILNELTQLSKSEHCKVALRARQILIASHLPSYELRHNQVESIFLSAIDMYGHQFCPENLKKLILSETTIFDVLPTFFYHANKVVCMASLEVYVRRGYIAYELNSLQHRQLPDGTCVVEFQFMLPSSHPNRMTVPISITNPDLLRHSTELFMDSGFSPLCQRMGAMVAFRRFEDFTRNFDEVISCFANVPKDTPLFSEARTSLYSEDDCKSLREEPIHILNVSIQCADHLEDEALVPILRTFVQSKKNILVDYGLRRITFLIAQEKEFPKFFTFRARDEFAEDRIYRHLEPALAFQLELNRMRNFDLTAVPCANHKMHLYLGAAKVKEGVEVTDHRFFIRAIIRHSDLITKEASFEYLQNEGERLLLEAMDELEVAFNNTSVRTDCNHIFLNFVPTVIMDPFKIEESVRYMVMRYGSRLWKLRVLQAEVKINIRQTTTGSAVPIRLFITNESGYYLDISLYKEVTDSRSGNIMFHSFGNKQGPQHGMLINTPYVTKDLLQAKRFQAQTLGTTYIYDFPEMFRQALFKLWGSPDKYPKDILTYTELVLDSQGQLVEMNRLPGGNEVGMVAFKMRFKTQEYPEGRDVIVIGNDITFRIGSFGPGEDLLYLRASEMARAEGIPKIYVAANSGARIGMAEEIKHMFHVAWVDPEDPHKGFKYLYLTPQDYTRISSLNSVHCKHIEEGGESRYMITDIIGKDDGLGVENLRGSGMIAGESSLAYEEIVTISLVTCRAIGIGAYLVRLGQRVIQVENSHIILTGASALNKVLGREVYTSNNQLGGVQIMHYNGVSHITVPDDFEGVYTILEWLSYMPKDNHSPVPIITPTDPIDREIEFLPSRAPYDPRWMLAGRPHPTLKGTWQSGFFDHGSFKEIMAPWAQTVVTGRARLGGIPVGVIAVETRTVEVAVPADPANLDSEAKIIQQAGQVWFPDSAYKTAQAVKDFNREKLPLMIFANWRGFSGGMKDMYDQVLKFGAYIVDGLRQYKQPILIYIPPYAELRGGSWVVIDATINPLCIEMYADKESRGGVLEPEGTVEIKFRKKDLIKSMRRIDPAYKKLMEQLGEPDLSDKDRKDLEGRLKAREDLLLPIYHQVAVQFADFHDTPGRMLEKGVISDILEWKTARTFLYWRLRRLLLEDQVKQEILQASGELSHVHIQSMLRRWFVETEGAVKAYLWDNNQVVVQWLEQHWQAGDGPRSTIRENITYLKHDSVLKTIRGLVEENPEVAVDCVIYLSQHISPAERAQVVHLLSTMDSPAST
# assay_name: ACC2 assay (spectrophotometric 384 well assay, NADH-linked kinetic method)
# Assay type: biochemical
# measurement_parameters: hACC2 construct lacking 128 N-terminal amino acids; coupled lactate dehydrogenase/pyruvate kinase reaction, 340 nm, 25° C.
pIC50: −log10 of the molar value.
Recorded pIC50, one value per entry.

{"columns": ["compound", "pIC50"],
 "data": [
  ["CO[C@H]1CCN(c2ncc(F)c(N3CC[C@@H](Oc4ccc([C@H](C)NC(C)=O)cc4)C3)n2)C1", 6.76],
  ["CC(=O)N[C@@H](C)c1ccc(O[C@@H]2CCN(c3ncnc(OCCCF)c3F)C2)cc1", 7.31],
  ["C[C@H](NC(=O)N1CCOCC1)c1ccc(OC2CCN(c3ccnc(N4CCOCC4)n3)C2)cc1 (stereo partly shown)", 6.22],
  ["CC(=O)N[C@@H](C)c1ccc(O[C@@H]2CCN(c3ncnc(N4CCOC(C)C4)c3F)C2)cc1 (stereo partly shown)", 6.45],
  ["COc1c(OCC2CC2)ncnc1N1CC[C@@H](Oc2ccc([C@H](C)NC(=O)c3oc(NC(C)=O)nc3C)cc2)C1", 6.09],
  ["Cc1oncc1C(=O)N[C@@H](C)c1ccc(OC2CCN(c3ccnc(N(C)CC(F)F)n3)C2)cc1 (stereo partly shown)", 7.05],
  ["CCCN(C)c1ncc(C#N)c(N2CC[C@@H](Oc3ccc([C@H](C)NC(C)=O)cc3)C2)n1", 5.96]
]}

* * *

# system_under_test: human ACC2 (Homo sapiens (Human))
# assay_name: ACC2 assay (spectrophotometric 384 well assay, NADH-linked kinetic method)
# Type: biochemical
# measurement_parameters: hACC2 construct lacking 128 N-terminal amino acids; coupled lactate dehydrogenase/pyruvate kinase reaction, 340 nm, 25° C.
pIC50: −log10 of the molar value.
Below is a list of entries, each paired with its recorded pIC50 value.

{"columns": ["compound", "system_under_test", "pIC50"],
 "data": [
  ["COC[C@@H]1CCN(c2ncc(Cl)c(N3CC[C@@H](Oc4ccc([C@H](C)NC(C)=O)cc4)C3)n2)C1 [Example 8.188]", "human ACC2 (Homo sapiens (Human))", 6.93],
  ["CC(=O)N[C@@H](C)c1ccc(O[C@@H]2CCN(c3ccnc(N(C)Cc4ccccc4)n3)C2)cc1 [Example 8.23]", "human ACC2 (Homo sapiens (Human))", 6.73],
  ["C[C@H](NC(=O)c1cn[nH]c1)c1ccc(OC2CCN(c3ccnc(N(C)CC(F)F)n3)C2)cc1 (stereo partly drawn) [Example 2.15]", "human ACC2 (Homo sapiens (Human))", 7.15],
  ["COC(=O)N[C@@H](C)c1ccc(OC2CCN(c3ncnc(OCC4CC4)c3F)C2)cc1 (stereo partly drawn) [Example 4.5]", "human ACC2 (Homo sapiens (Human))", 7.07],
  ["CC(=O)N[C@@H](C)c1ccc(O[C@@H]2CCN(c3nc(NC4CCCC4)ncc3F)C2)cc1 [Example 8.10]", "human ACC2 (Homo sapiens (Human))", 6.72],
  ["CCN(C)c1nccc(N2CCC(Oc3ccc([C@H](C)NC(=O)c4cn[nH]c4)cc3)C2)n1 (stereo partly drawn) [Example 2.17]", "human ACC2 (Homo sapiens (Human))", 6.93],
  ["CC(=O)N[C@@H](C)c1ccc(O[C@@H]2CCN(c3ncnc(N4CCC(C)(O)C4)c3Cl)C2)cc1 (stereo partly drawn) [Example 8.297]", "human ACC2 (Homo sapiens (Human))", 6.65],
  ["CC(=O)N[C@@H](C)c1ccc(O[C@@H]2CCN(c3nc(N4CCC(C)(C)C4)ncc3F)C2)cc1 [Example 8.194]", "human ACC2 (Homo sapiens (Human))", 6.89],
  ["CC(=O)N[C@@H](C)c1ccc(O[C@@H]2CCN(c3ccnc(N4C[C@@H](C)O[C@@H](C)C4)n3)C2)cc1 [Example 8.85]", "human ACC2 (Homo sapiens (Human))", 6.25],
  ["CC(=O)Nc1nc(C)c(C(=O)N[C@@H](C)c2ccc(OC3CCN(c4ccnc(N5CCOCC5)n4)C3)cc2)s1 (stereo partly drawn) [Example 2.3]", "human ACC2 (Homo sapiens (Human))", 6.26],
  ["CCN(CCO)c1nccc(N2CC[C@@H](Oc3ccc([C@H](C)NC(C)=O)cc3)C2)n1 [Example 8.263]", "human ACC2 (Homo sapiens (Human))", 6.16],
  ["CC(=O)N[C@@H](C)c1ccc(O[C@@H]2CCN(c3nc(N4CC(F)(F)C4)ncc3F)C2)cc1 [Example 8.67]", "human ACC2 (Homo sapiens (Human))", 6.89],
  ["CCN(C)c1ncnc(N2CC[C@@H](Oc3ccc([C@H](C)NC(C)=O)cc3)C2)c1C [Example 8.101]", "human ACC2 (Homo sapiens (Human))", 6.42],
  ["CC(=O)N[C@@H](C)c1ccc(O[C@@H]2CCN(c3nc(N(C)CC4CCOC4)ncc3F)C2)cc1 (stereo partly drawn) [Example 8.29]", "human ACC2 (Homo sapiens (Human))", 6.82],
  ["CC(=O)N[C@@H](C)c1ccc(O[C@@H]2CCN(c3nc(N4C[C@@H]5CC[C@@H](C4)O5)ncc3F)C2)cc1 [Example 8.279]", "human ACC2 (Homo sapiens (Human))", 6.43]
]}

src = patent US8962641B2
